The reported numbers originate from paper PMC10709440.

# Target entity: Drosophila OR13a (Drosophila melanogaster, UniProt Q9VXL0)
# Construct: expressed in transfected cells
# Sequence (Q9VXL0 whole entry, one chain of several): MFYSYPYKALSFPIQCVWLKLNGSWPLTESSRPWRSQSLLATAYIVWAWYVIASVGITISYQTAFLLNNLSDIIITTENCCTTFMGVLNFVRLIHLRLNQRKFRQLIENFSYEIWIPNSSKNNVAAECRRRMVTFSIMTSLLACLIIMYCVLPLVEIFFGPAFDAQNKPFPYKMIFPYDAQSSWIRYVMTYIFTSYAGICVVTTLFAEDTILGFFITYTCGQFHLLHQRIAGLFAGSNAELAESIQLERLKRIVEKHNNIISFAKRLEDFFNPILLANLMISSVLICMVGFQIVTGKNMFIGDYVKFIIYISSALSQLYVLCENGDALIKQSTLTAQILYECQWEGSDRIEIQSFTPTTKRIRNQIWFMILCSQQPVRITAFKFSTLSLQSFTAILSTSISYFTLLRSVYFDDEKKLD
# Assay info: Calcium ion fluorescence (GCaMP6) assay, OR13a stable HEK293 cell line
# Type: cell-based
# Conditions: EC50, OR13a cell line; fitted Hill equation, Hill coefficient constrained to 1, maximal response max 1
# Protocol: These VUAA1 normalized ∆F values were used to compare the different receptors and ligands. The concentration-dependent effect of the reference ligands on their cognate cell lines was examined in more detail. Twelve different ligand concentrations were measured on each cell line in an overall 0.01 μM to 100 μM concentration range with 5 repetitions with three technical replicates each time. […]
Measurement type: EC50

>>> value("C=CC(O)CCCCC (stereo not shown)")
"1440 nM"

----------
# Target entity: Drosophila OR49b (Drosophila melanogaster, UniProt Q9V6H2)
# Construct: expressed in transfected cells
# Sequence (Q9V6H2 whole entry, one chain of several): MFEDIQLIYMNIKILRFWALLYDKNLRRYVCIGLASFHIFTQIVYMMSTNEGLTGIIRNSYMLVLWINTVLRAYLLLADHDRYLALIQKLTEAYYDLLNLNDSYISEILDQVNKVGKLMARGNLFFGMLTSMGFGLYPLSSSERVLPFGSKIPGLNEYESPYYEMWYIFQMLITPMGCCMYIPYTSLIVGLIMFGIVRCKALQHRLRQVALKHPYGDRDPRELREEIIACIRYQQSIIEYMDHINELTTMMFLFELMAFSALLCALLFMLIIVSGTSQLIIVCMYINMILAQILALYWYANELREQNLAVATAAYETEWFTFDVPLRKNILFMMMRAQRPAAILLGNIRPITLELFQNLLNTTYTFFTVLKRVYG
# Assay info: cell-based
# Conditions: OR49b cell line; odorant cc. 100 µM; mean of biological replicates
Measured Average response values are reported for all entries that follow.
Measurement type: Average response

>>> value("CCCCCCCCC=O")
0.00
>>> value("CCOC(=O)CC [ethyl propionate]")
0.0428
>>> value("CCCCCCCCCCCCCC")
0.0348
>>> value("COC(=O)c1ccccc1O [methyl salicylate]")
0.12
>>> value("COc1cccc(OC)c1")
0.00
>>> value("CCOC(=O)c1ccccc1 [ethyl benzoate]")
0.0169
>>> value("CC(=O)OCCC(C)C [isopentyl acetate]")
0.15
>>> value("CCCCCCCCC(CO)CCCCCC (stereo not shown)")
0.0856
>>> value("Cc1ccccc1C")
0.64
>>> value("CC1=CC[C@@H](C(C)(C)O)CC1")
0.0245
>>> value("CCCCCCCO")
0.06
>>> value("OCCc1ccccc1")
0.09
>>> value("CCCCCC(C)=O")
0.02

----------
# Target entity: Drosophila OR47a (Drosophila melanogaster, UniProt P81921)
# Construct: expressed in transfected cells
# Sequence (P81921 1-385): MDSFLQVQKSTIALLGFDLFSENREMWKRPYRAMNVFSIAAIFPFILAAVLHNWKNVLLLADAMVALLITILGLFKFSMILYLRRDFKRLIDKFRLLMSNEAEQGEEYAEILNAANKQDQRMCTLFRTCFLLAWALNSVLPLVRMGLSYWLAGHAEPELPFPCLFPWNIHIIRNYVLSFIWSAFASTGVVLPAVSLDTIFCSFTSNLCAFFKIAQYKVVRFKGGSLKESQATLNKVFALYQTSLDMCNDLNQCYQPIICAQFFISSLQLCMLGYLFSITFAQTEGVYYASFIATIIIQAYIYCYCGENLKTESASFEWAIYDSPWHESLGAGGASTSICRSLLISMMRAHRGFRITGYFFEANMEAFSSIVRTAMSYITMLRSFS
# Sequence (Q9VNB5 1-486 partner): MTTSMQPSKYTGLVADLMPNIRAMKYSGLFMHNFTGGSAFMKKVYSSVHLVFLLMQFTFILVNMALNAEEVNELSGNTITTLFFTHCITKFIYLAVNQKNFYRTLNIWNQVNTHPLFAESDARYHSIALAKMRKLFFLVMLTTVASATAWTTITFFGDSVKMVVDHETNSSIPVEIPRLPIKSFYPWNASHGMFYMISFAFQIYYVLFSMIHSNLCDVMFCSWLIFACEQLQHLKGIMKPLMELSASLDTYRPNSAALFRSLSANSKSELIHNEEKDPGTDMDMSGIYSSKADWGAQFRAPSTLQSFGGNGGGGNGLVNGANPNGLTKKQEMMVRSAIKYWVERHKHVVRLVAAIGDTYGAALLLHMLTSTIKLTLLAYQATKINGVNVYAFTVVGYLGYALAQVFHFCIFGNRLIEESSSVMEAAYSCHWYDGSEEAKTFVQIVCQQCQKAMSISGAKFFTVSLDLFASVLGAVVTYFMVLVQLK
# Assay info: Calcium ion fluorescence (GCaMP6) assay, OR47a stable HEK293 cell line
# Format: cell-based
# Conditions: HEK293, read-out: OR47a response (VUAA1-normalized response)
Measurement type: activation at 10 µM (%)

>>> value("CC(=O)c1ccccc1 [acetophenone]")
0
>>> value("CCCCCC(C)=O [2-heptanone]")
19
>>> value("CC1=CCC2CC1C2(C)C (stereo not drawn) [alpha-pinene]")
0
>>> value("CCCCCC(=O)OCC [ethyl hexanoate]")
26
>>> value("C=CC(O)C/C=C\\CC (stereo not drawn) [(5Z)-octa-1,5-dien-3-ol]")
0
>>> value("CC1=CCC2C(C1)C2(C)C (stereo not drawn) [3-carene]")
0
>>> value("CCCC(=O)OCC [ethyl butyrate]")
0
>>> value("Cc1ccc(C)c(C)c1 [1,2,4-trimethylbenzene]")
0
>>> value("O=Cc1ccccc1 [benzaldehyde]")
0
>>> value("CCCCC(C)=O [2-hexanone]")
0
>>> value("CCCCCC(=O)CC [3-octanone]")
16
>>> value("CC(=O)OCC(C)C [isobutyl acetate]")
15
>>> value("Cc1cccc(O)c1 [3-methylphenol]")
0
>>> value("CCCCCO [1-pentanol]")
0
>>> value("CC1=CC[C@@H](C(C)(C)O)CC1 [alpha-terpineol]")
0
>>> value("CC(=O)OCCC(C)C [isopentyl acetate]")
12
>>> value("CCCCC(C)O (stereo not drawn) [2-hexanol]")
0
>>> value("CCCCCCCCCC=O [decanal]")
0
>>> value("CCCCCC(C)O (stereo not drawn) [2-heptanol]")
6
>>> value("C=CCc1ccc(O)c(OC)c1 [eugenol]")
0
>>> value("COc1cccc(OC)c1 [1,3-dimethoxy benzene]")
0
>>> value("Cc1ccc(O)cc1 [4-methylphenol]")
0
>>> value("C=C1CC[C@H]2O[C@]2(C)CC[C@@H]2[C@@H]1CC2(C)C [(-)-caryophyllene oxide]")
0
>>> value("CCOC(=O)CC [ethyl propionate]")
0
>>> value("C=C1CCC2CC1C2(C)C (stereo not drawn) [beta-pinene]")
0
>>> value("CCCCCCCCC(CO)CCCCCC (stereo not drawn) [2-hexyl-1-decanol]")
0
>>> value("C=CC(O)CCCCC (stereo not drawn) [1-octen-3-ol]")
0

----------
# Target entity: Drosophila OR47a (Drosophila melanogaster, UniProt P81921)
# Construct: expressed in transfected cells
# Sequence (P81921 1-385): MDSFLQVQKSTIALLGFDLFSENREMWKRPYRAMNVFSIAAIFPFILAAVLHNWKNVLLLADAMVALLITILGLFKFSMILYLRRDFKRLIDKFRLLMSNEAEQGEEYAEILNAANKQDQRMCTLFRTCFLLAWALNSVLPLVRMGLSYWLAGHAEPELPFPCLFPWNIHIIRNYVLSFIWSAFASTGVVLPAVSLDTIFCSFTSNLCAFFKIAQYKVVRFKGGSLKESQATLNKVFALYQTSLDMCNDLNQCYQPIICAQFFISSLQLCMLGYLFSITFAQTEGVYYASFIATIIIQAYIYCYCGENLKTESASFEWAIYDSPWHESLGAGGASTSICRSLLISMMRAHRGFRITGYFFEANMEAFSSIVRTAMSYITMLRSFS
# Sequence (Q9VNB5 1-486 partner): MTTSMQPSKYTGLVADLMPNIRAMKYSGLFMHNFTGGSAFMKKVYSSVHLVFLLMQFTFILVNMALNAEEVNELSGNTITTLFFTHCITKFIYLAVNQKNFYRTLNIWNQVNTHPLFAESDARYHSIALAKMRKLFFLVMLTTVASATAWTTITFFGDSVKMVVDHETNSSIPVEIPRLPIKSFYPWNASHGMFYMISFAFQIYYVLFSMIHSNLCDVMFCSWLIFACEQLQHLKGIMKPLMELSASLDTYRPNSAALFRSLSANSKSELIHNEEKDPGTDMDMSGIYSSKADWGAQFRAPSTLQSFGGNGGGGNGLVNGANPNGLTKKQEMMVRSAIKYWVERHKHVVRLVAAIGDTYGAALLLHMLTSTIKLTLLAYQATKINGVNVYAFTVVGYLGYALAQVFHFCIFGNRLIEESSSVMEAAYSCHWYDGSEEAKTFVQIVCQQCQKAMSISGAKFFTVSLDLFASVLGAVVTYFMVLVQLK
# Assay info: Calcium ion fluorescence (GCaMP6) assay, OR47a stable HEK293 cell line
# Assay type: cell-based
# Conditions: HEK293, read-out: OR47a response (VUAA1-normalized response)
Measured activation at 100 µM values are reported for all entries that follow.
Measurement type: activation at 100 µM (%)

>>> value("CCCCCC(O)CC (stereo not drawn) [3-octanol]")
9
>>> value("C=CC(O)C/C=C\\CC (stereo not drawn) [(5Z)-octa-1,5-dien-3-ol]")
0
>>> value("COc1cccc(OC)c1 [1,3-dimethoxy benzene]")
0
>>> value("Cc1ccc(O)cc1 [4-methylphenol]")
5.42
>>> value("CCOC(=O)c1ccccc1 [ethyl benzoate]")
10
>>> value("C=CCc1ccc(O)c(OC)c1 [eugenol]")
0
